Measured values drawn from PubChem BioAssay (NCI) for this set.

# growth annotations
Test system: 786-0 renal
test_method_notes: NCI-60 one-dose screen, 48 h (100 = growth as untreated, 0 = no growth, -100 = all killed)
run_conditions: 10 µM unless noted
Compounds without any hit were thinned out: in the full panel of roughly 83,000, 20% have a hit.
Give your result in % as a bare value.

Exercise: Give its growth value. Item: COc1ccc(N=Nc2c(N)nn3c(N)c(C#N)c(-c4ccc(F)cc4)nc23)cc1
Solution: 32

Exercise: Here is the next compound: N/C(=N\c1nc2ccccc2s1)NC(=O)Nc1ccccc1F
Solution: 17.7

Exercise: What about this compound? O=C(N/N=C/c1ccc(B(O)O)s1)c1[nH]c2ccc(Br)cc2c1-c1ccccc1
Solution: -66.2

Exercise: Similarly, COC(=O)c1cc(C(C)=O)n2c3ccccc3c3ccccc3c12 ?
Solution: 36.6

Exercise: Same for COc1ccc2[nH]cc(-c3cc4nc(-c5cn(C)c6ncccc56)cc(N)n4n3)c2c1
Solution: -90.3

Exercise: Now try COc1ccc2ccccc2c1/C=C1\SC(=Nc2ccc(O)cc2)NC1=O .
Solution: 17.7

Exercise: Okay, and CCc1ccccc1NC(=O)N/C(N)=N/c1nc2ccccc2s1 ?
Solution: -4.92

Exercise: Now give it for NCCCCn1c(SCCc2c[nH]c3ccccc23)nnc1-c1ccc2ccccc2n1 too.
Solution: -92.3

Exercise: Note, next up: C=CCSc1nnc(-c2ccc(-c3nc4ccccc4[nH]3)cc2)o1
Solution: 77.6

Exercise: Quick one: COc1ccccc1NC(=O)N/N=C/c1c[nH]c2ccccc12
Solution: 14.9

---

Recorded growth values for a group of compounds are listed next.
Test system: ACHN renal
test_method_notes: NCI-60 one-dose screen, 48 h (100 = growth as untreated, 0 = no growth, -100 = all killed)
run_conditions: 10 µM unless noted
Description: Growth inhibition of the ACHN human tumor cell line is measured as a screen for anti-cancer activity. Cells are grown in 96 well plates and exposed to the test compound for 48 hours. Compounds are tested at a single concentration, which is 10^-5 M for most compounds. The reported endpoint is percent growth (GI% or GIPRCNT), where numbers from 0 - 100% represent growth inhibition, and numbers from -100% - 0 represent cell death. For example, a value of 40 represents 60% growth inhibition. […]
Compounds without any hit were thinned out: in the full panel of roughly 83,000, 20% have a hit.
Use % as the unit, but write only the number.

>>> df
                                   compound  metric  observed_value
0  COc1cc(CNC(=O)C[C@H](C)CCC=C(C)C)ccc1OCc1cn(-c2ccccc2F)nn1  growth            65.3
1  COc1cc(-c2ccc3ncnc(N4CCc5ccc(Cl)cc54)c3c2)cnc1Cl  growth            14.1
2  COc1ccc2[nH]c(=O)c(CSc3ccccc3Nc3nccc(-c4ccc5c(c4)OCO5)n3)cc2c1  growth            90.4
3  O=C(N/N=C/c1ccc(Cl)cc1)c1ccc(OCc2nc3ccc(Cl)cc3[nH]2)cc1  growth            28.6
4  COC(=O)c1cccc(Oc2ccc(NC(=O)Nc3cc(C(F)(F)F)ccc3F)cc2)c1  growth            56.4

// switching to the query compound
Exercise: Please report the recorded growth for COC(=O)c1cc(C(=O)C(F)(F)F)n2c3ccccc3c3ccccc3c12 .
Solution: 18.2

---

Test system: RPMI-8226 leukemia
test_method_notes: NCI-60 one-dose screen, 48 h
run_conditions: 10 µM unless noted
About 83,000 compounds went through this panel and 20% of them were active in at least one assay; those are over-represented in the sample as a whole. Activity calls are given as the source filed them. The calls were made as follows: active = growth percent below 10; inactive = the rest.
// allowed return values: 1 for active, -1 for inactive

Some entries whose results are on file:
molecule	category
Cc1nn(-c2ccccc2)c2nc(C)n(CC(=O)N/N=C/c3ccccc3O)c(=O)c12	-1
C=CCSc1nnc(-c2c(C)nc3sccn23)o1	-1
O=C(CSc1nc2sc3c(c2c(=O)n1-c1ccc(Cl)cc1)CCCC3)N/N=C/C=C/c1ccccc1	1
COc1ccc2c(c1)C(=O)N(C)C2C1c2c(cc3c(c2OC)OCO3)CCN1C (stereo unspecified)	-1
Cc1ccc(C(C)C)cc1Oc1cccc(-c2c(-c3ccc(C(F)(F)F)cc3)ncn2C2CCNCC2)n1	1
O=C(CSc1nnc(-c2ccc(-c3nc4ccc(Cl)cc4[nH]3)cc2)o1)Nc1ccc(Br)cc1	1
CC[C@]12C=CCN3CC[C@]4(C(=C(C(=O)OC)C1)Nc1cc(OC)c([C@@H]5[C@H]6O[C@H]6[C@@]6(CC)CC(C(=O)OC)=C7Nc8cc(OC)ccc8[C@@]78CCN5[C@@H]68)cc14)[C@@H]32	-1
O=C(N/N=C/c1ccc(B(O)O)s1)c1[nH]c2ccc(Br)cc2c1-c1ccccc1	1
O=C(CSc1nc2c(c(=O)[nH]1)CCCC2)Nc1ccccc1C(=O)O	-1
C=CC(=O)Nc1ccc(C(=O)/C=C/c2ccc(N(C)C)cc2)c(O)c1	1

Exercise: Assay result, entry S=C(Nc1ccccc1)Nc1ccc(OCc2nc3ccc(Cl)cc3[nH]2)cc1 — outcome?
Solution: -1

Exercise: Then this molecule: FC(F)(F)c1cc2c(Cl)ncnc2n1CCC1CCOCC1
Solution: -1

Exercise: Now try COc1ccc(C(=O)c2cc(C(C)=O)c3c(C)cc(C)cn23)cc1 .
Solution: -1

---

System: DU-145 prostate
test_method_notes: NCI-60 one-dose screen, 48 h (100 = growth as untreated, 0 = no growth, -100 = all killed)
run_conditions: 10 µM unless noted
The panel holds about 83,000 compounds, 20% with a hit somewhere; the sample as a whole holds those more often.
# reported growth; entries follow
// note: answer is a bare numeric in %

For orientation, consider the following solved cases.
                               input_smiles    target_system  metric  units  observed_value
0       CCCCCCCCc1ccc(C(=O)Nc2cccc(O)c2)cc1  DU-145 prostate  growth      %            80.1
1  COc1ccc(NC(=O)Cn2c(/C=C/c3cccc(Br)c3)nc3ccccc3c2=O)cc1  DU-145 prostate  growth      %            79.1

With those in mind, consider the next compound.
Exercise: growth for Cc1ccc(C(=O)Nc2cc(-n3cnc(F)c3)cc(C(F)(F)F)c2)cc1C#Cc1cnc2cccnn12 ?
Solution: 80.9

---

Tested on: HS 578T breast
test_method_notes: NCI-60 one-dose screen, 48 h (100 = growth as untreated, 0 = no growth, -100 = all killed)
run_conditions: 10 µM unless noted
About 83,000 compounds went through this panel and 20% of them were active in at least one assay; those are over-represented in the sample as a whole. Activity calls are given as the source filed them. Rule for the calls: active = growth percent below 10; inactive = the rest.
The molecules listed here are annotated with their growth.

Solved cases (3 shown):
>>> df
                                   molecule  metric    observed_value
0  CN(C)CCCNC(=S)Nc1ccc(/C=C/c2ccc(Cl)cc2)cc1  growth  11.7% (inactive)
1  COc1ccc(NC(=O)CSc2nnc(-c3ccc(-c4nc5ccc(Cl)cc5[nH]4)cc3)o2)cc1  growth  24.7% (inactive)
2  CC(Nc1ncnc2ccc(-c3ccc4oc(N)nc4c3)cc12)c1ccccc1 (centres undefined)  growth   -31.7% (active)

As a next step, examine the molecule that follows.
Exercise: What does the data say about its growth? Entry: Cc1cc(N=C(N)c2ccccc2)ccc1OCCCCCCCCn1ccnc1
Solution: 13.6% (inactive)

---

This section presents molecules with their documented growth values.
Test system: MALME-3M melanoma
test_method_notes: NCI-60 one-dose screen, 48 h (100 = growth as untreated, 0 = no growth, -100 = all killed)
run_conditions: 10 µM unless noted
Compounds without any hit were thinned out: in the full panel of roughly 83,000, 20% have a hit.
Kindly answer with a numeric value in %, unit omitted.

Worked examples, 8 molecules total:
                                   molecule  observed_value
0  COc1ccc(N=Nc2c(N)nn3c(-c4cc5cc(Br)ccc5oc4=O)ccnc23)cc1            46.4
1  COc1cc(CNC(=O)C[C@H](C)CCC=C(C)C)ccc1OCc1cn(-c2ccccc2Cl)nn1            68.2
2  CC1=C(C(=O)Nc2ccccc2)C(c2ccc3ccccc3c2)n2c(nc3ccccc32)N1 (stereo unspecified)            72.5
3  Cc1ccc2c(c1)nc(-c1ccccc1)n2CC(=O)N=Nc1c(O)[nH]c2ccc(Cl)cc12           -28.6
4  O=C(N/N=C/c1ccoc1)c1[nH]c2ccc(Br)cc2c1-c1ccccc1           -84.7
5  O=C1/C(=C/C=C/c2ccco2)SC(=S)N1CC(=S)C1C=CS(=O)(=O)C1 (stereo unspecified)            83.3
6  CN(C)c1ccc(/C=C/c2n(Cc3ccc4ccccc4c3)c3ccccc3[n+]2Cc2ccc3ccccc3c2)cc1             -68
7  O=C1Nc2ccccc2/C1=C\c1ccc(OCC(=O)c2ccc(Br)cc2)cc1              81

Exercise: Field request: growth | item: CN(C)c1nc(NCCNS(=O)(=O)c2ccc(C(=O)/C=C/c3ccccc3)cc2)nc(N2CCOCC2)n1
Solution: 99.2

Exercise: Repeat for the following molecule: COC(=O)c1cc(C(=O)CBr)n2c1ccc1c3ccccc3ccc12
Solution: 51.2
